# procedure_text: reduction of polyQ htt aggregates in cells – imaging, exon1htt(103Q)mCFP cells, high-content imaging, primary screen (AID 483);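 further: compound exposure lasted 3 days before fixation; percent of the per-plate median nuclei count of sample wells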
# condition_parameters: exon1htt(103Q)mCFP cell line, aggregate imaging, at 2 µM; measured here: cell count, toxicity
Entries and their nuclei count values follow.
// units = %; emit number, no label

Can you share its nuclei count? I mean this compound: COc1c2ccoc2nc2c(OC)c(OCC(O)C(C)(C)O)ccc12 (centres undefined)
101

And then N#CCCCN1C(=O)C(O)(CC(=O)c2ccc3c(c2)OCCO3)c2ccccc21 (centres undefined) , what is it?
100

And then FC(F)(F)c1cc(-c2ccco2)nc(-n2nnc3ccccc32)n1 , what is it?
109

And then CC(=O)Oc1ccc(C(c2ccc(OC(C)=O)cc2)c2ccccn2)cc1 , what is it?
99.8

And then COCCn1c(-c2ccc(OC)c(OC)c2)nc2ccccc21 , what is it?
85.8

And then CCn1c(=O)n(CC(=O)Nc2cc(OC)ccc2OC)c(=O)c2ccccc21 , what is it?
63.6

And then Cc1cc(NC(=O)CSc2nc3ccsc3c(=O)n2NC(=O)c2ccccc2)no1 , what is it?
102

And then CCOC(=O)C1=C(C)NC(=O)C(C#N)C1c1ccco1 (centres undefined) , what is it?
86.2

And then CCOc1cc(C2C(C#N)=C(N)OC(C)=C2C(C)=O)cc(Br)c1O (centres undefined) , what is it?
95.5

And then O=C(COc1ccccc1Cl)OCC(=O)N1CCN(S(=O)(=O)c2ccccc2)CC1 , what is it?
107

And then COc1cc2nc(N3CCN(C(=O)C4CCCO4)CC3)nc(N)c2cc1OC (centres undefined) , what is it?
82

And then CC(c1nnc(SCC(=O)Nc2sccc2C#N)n1-c1ccc(Cl)cc1)N(C)C (centres undefined) , what is it?
101

And then O=C(Nc1cccc2c1CCCC2)C1CCN(c2nnnn2-c2ccccc2)CC1 , what is it?
109

And then O=C1c2ccccc2NC(c2ccco2)N1O (centres undefined) , what is it?
110

And then Oc1cccc2ccc(Nc3ccccn3)nc12 , what is it?
82.5

And then CN(Cc1ccccc1)Cc1nc2c([nH]1)c(=O)[nH]c(=O)n2C , what is it?
96

And then Cc1cccn2cc(-c3ccccc3)nc12 , what is it?
103

And then Cc1ccc(OCC(=O)NCCN2CCCC2)cc1 , what is it?
101

And then CCOc1ccc(OCc2cccc(C(=O)O)c2)cc1 , what is it?
112

And then O=C(Nc1ccc(N2CCOCC2)c(F)c1)c1ccncc1 , what is it?
99.8

###

# procedure_text: inhibitors of TNFa-induced NFkB p65 translocation, primary screen, imaging, HUVEC, MLSMR starter and 10KST1 sets (AID 438);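 further: compound added about 3h40 before a 20 min TNFalpha stimulation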
# condition_parameters: HUVEC TNFa-induced p65 nuclear translocation; measured here: nuclei count (cytotoxicity indicator), at 2.08 µM
property_measured: cell count
Response field accepts a number only; no unit should be typed.

COc1ccc(-n2ncc3c(NCc4ccc5c(c4)OCO5)ncnc32)cc1 :: 360

Can you share its cell count? I mean this compound: CCNC(=O)CC1C(=O)N(c2ccc(F)cc2)C(=O)N1CCC(C)C (stereo not drawn)
357

And then CCCCc1ccc(NC(=O)c2c(C)noc2C)cc1 , what is it?
451

And then O=C(O)CCc1ccc(-c2ccccc2)n1CC(=O)O , what is it?
355

And then CC(C)c1ccc(S(=O)(=O)N2CCN(C(=O)c3cccc(F)c3)CC2)cc1 , what is it?
363

And then CC(C(=O)NCCCN1CCOCC1)n1cccc1C(=O)c1ccccc1 (stereo not drawn) , what is it?
572

And then CC(NC(=O)OCc1ccccc1)C(=O)N1CC(O)CC1C(=O)O (stereo not drawn) , what is it?
280

And then CCn1c(=O)cc(OCC(=O)NCCCN2CC(C)CC(C)C2)c2ccccc21 (stereo not drawn) , what is it?
395

And then Cc1cc(NC(=O)COC(=O)c2cccc(S(=O)(=O)N3CCOCC3)c2)no1 , what is it?
457

And then O=C(O)c1[nH]nc2c1COc1ccccc1-2 , what is it?
308

And then CCOC(=O)N1CCN(C(=O)c2ccc(N3C(=O)CCC3=O)cc2)CC1 , what is it?
503

And then CC(C(=O)N1CCOCC1)N1c2cccc3cccc(c23)S1(=O)=O (stereo not drawn) , what is it?
341

And then O=C(NC12CC3CC(CC(C3)C1)C2)C1CCCN1C(=O)NC1CCCCC1 (stereo not drawn) , what is it?
559

These data points were gathered from PubChem BioAssay.
